This collection of values is drawn from patent US9724335B2.

experiment: Solubility of CBI in several solvents (24 h stirring at room temperature, HPLC); assay type: physicochemical; conditions: organic solvent or mixture, thermodynamic from solid, Methanol
metric.name: solubility at 24 h (mg/mL)
# value in mg/mL; strip the unit string

Output measured solubility at 24 h for this item: "NC(=O)OCc1cc(-c2ccc(OCc3ccccc3)cc2)no1" 2.5

---

experiment: Solubility of CBI in several solvents (24 h stirring at room temperature, HPLC); type: physicochemical; conditions: organic solvent or mixture, thermodynamic from solid, Ethanol
metric.name: solubility at 24 h (µg/mL)
# value in µg/mL; strip the unit string

Output measured solubility at 24 h for this item: "NC(=O)OCc1cc(-c2ccc(OCc3ccccc3)cc2)no1" 1500
